biological target: human telomerase (Homo sapiens, UniProt O14746); test: Telomerase inhibition, primer extension assay in HeLa cell extract; format: biochemical; conditions: 25 μM; Table 13; read-out: % Inhibition of telomerase
Sequence (O14746 whole entry): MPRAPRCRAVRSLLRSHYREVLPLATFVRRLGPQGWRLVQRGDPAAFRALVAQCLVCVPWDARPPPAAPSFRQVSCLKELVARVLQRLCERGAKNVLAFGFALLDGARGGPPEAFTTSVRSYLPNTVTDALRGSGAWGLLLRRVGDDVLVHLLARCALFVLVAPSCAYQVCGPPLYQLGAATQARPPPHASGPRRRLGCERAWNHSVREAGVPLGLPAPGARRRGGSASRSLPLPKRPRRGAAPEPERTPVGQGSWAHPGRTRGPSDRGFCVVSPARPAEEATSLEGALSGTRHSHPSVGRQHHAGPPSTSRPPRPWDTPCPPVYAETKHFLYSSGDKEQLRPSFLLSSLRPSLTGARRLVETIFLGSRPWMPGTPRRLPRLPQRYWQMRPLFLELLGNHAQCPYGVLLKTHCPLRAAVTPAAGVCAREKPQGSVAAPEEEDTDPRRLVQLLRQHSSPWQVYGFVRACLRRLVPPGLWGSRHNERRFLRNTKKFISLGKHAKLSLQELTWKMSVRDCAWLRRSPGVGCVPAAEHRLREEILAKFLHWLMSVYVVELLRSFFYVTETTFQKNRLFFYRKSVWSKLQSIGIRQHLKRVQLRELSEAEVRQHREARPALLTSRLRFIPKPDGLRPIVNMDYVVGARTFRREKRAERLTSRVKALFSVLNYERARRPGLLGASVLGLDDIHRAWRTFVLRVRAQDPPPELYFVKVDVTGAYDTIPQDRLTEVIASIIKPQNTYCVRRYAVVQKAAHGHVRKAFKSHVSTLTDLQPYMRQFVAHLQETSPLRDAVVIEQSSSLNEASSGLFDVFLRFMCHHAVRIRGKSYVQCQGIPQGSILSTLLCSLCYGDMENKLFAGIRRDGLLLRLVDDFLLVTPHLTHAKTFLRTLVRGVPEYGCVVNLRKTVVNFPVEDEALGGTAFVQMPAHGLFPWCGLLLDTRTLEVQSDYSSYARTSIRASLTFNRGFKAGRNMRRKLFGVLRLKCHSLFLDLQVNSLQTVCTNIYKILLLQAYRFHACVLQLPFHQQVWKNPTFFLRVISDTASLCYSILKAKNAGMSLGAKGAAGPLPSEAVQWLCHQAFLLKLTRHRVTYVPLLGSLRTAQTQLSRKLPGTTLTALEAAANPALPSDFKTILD
measurement.name: inhibition at 25 µM (%)

[P] C[n+]1ccc(-c2c3nc(c(-c4ccccc4)c4ccc([nH]4)c(-c4cc[n+](C)cc4)c4nc(c(-c5ccccc5)c5ccc2[nH]5)C=C4)C=C3)cc1
[Q] Nc1ccccc1-c1c2nc(c(-c3ccccc3N)c3ccc([nH]3)c(-c3ccccc3N)c3nc(c(-c4ccccc4N)c4ccc1[nH]4)C=C3)C=C2
[R] Nc1cccc(-c2c3nc(c(-c4cccc(N)c4)c4ccc([nH]4)c(-c4cccc(N)c4)c4nc(c(-c5cccc(N)c5)c5ccc2[nH]5)C=C4)C=C3)c1
Query: Hey, quick one: sort these by inhibition at 25 µM, largest value first please. Answer by naming the labels in the order asked.
Response: P, R, Q
(P: 47%, R: 15%, Q: 3%)

* * *

system: MCF-7M; format: cell-based, human; conditions: mcf-7m cells
measurement.name: IC50 (µM)
Express it in µM; write the number only.

Item: C[n+]1ccc(-c2c3nc(c(-c4cc[n+](C)cc4)c4ccc([n-]4)c(-c4cc[n+](C)cc4)c4nc(c(-c5cc[n+](C)cc5)c5ccc2[n-]5)C=C4)C=C3)cc1.[Cl-].[Cl-].[Cl-].[Cl-].[Pt+2] [TMPyP4 PtII] | IC50: 74.8

* * *

target: human telomerase (Homo sapiens); assay: Telomerase inhibition, primer extension assay in HeLa cell extract; format: biochemical; conditions: 25 μM; Table 7; read-out: % Inhibition of telomerase
measurement.name: inhibition at 25 µM (%)

Guide cases for inhibition at 25 µM, answers given:
Item: Cc1ccc(-c2c3nc(c(-c4ccc(C)cc4)c4ccc([nH]4)c(-c4cc[n+](C)cc4)c4nc(c(-c5ccc(C)cc5)c5ccc2[nH]5)C=C4)C=C3)cc1 [Compound D9] | inhibition at 25 µM: 31

Item: C[n+]1cccc(-c2c3nc(c(-c4ccccc4)c4ccc([nH]4)c(-c4ccccc4)c4nc(c(-c5ccccc5)c5ccc2[nH]5)C=C4)C=C3)c1 [Compound B25] | inhibition at 25 µM: 35

Item: C[n+]1ccc(-c2c3nc(c(-c4ccccc4)c4ccc([nH]4)c(-c4ccccc4)c4nc(c(-c5cc[n+](C)cc5)c5ccc2[nH]5)C=C4)C=C3)cc1 [Compound B5] | inhibition at 25 µM: 20

[I] C[n+]1ccc(-c2c3nc(c(-c4ccccc4)c4ccc([nH]4)c(-c4ccccc4)c4nc(c(-c5ccccc5)c5ccc2[nH]5)C=C4)C=C3)cc1 [Compound B24]
[II] C[n+]1cccc(-c2c3nc(c(-c4ccccc4)c4ccc([nH]4)c(-c4ccc[n+](C)c4)c4nc(c(-c5ccccc5)c5ccc2[nH]5)C=C4)C=C3)c1 [Compound B9]
Query: Which record would sort first by descending inhibition at 25 µM, I or II ? Write down the label of the entry you select.
Response: I
(I: 34%, II: 18%)

* * *

target: human telomerase (Homo sapiens); test: Telomerase inhibition, primer extension assay in HeLa cell extract; type: biochemical; settings: Table 15; concentration fixed at 25 μM; read-out: % Inhibition of telomerase
measurement.name: inhibition at 25 µM (%)

Measured on human telomerase (Homo sapiens), COC(=O)CCC1=C(C)c2cc3[nH]c(cc4nc(cc5[nH]c(cc1n2)c(CCC(=O)OC)c5C)C(C)=C4C(C)=O)c(C)c3C(C)=O has a documented inhibition at 25 µM of 14

Measured on human telomerase (Homo sapiens), CCC1=C(C)c2cc3[nH]c(cc4nc(cc5[nH]c(cc1n2)c(C)c5CC)C(C)=C4CC)c(CC)c3C has a documented inhibition at 25 µM of 0

Measured on human telomerase (Homo sapiens), C=CC1=C(C)c2cc3[nH]c(cc4nc(cc5[nH]c(cc1n2)c(C)c5C=C)C(C)=C4CCCO)c(CCCO)c3C has a documented inhibition at 25 µM of 24

Measured on human telomerase (Homo sapiens), CC1=C(C=O)c2cc3[nH]c(cc4nc(cc5[nH]c(cc1n2)c(CCC(=O)O)c5C)C(CCC(=O)O)=C4C)c(C=O)c3C has a documented inhibition at 25 µM of -10

Measured on human telomerase (Homo sapiens), CC(=O)C1=C(C)c2cc3[nH]c(cc4nc(cc5[nH]c(cc1n2)c(C)c5C(C)=O)C(C)=C4CCC(=O)O)c(C)c3CCC(=O)O has a documented inhibition at 25 µM of 0

[A] C=CC1=C(C)c2cc3[nH]c(cc4nc(cc5[nH]c(cc1n2)c(C)c5C=C)C(C)=C4CCC(=O)O)c(CCC(=O)O)c3C
[B] CC1=C(CCC(=O)O)c2cc3[nH]c(cc4nc(cc5[nH]c(cc1n2)c(C)c5CCC(=O)O)C(CCC(=O)O)=C4C)c(C)c3CCC(=O)O
Query: // pick min by inhibition at 25 µM: A , B Write down the label of the entry you select.
Response: B

[a] CC1=C(CCC(=O)O)c2cc3[nH]c(cc4nc(cc5[nH]c(cc1n2)c(C(C)O)c5C)C(C(C)O)=C4C)c(C)c3CCC(=O)O (stereo not drawn)
[b] CCOC(=O)CCC1=C(C)c2cc3[nH]c(cc4nc(cc5[nH]c(cc1n2)c(CC)c5C)C(CC)=C4C)c(C)c3C
Query: // pick min by inhibition at 25 µM: a , b Write down the label of the entry you select.
Response: b
(b: 0%, a: 18%)
